test: chemical genetic growth profiling, strain panel (AID 1159580);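 note: tested at 20 µM; growth read once vehicle control cultures reached saturation at 30 °C; 1 = growth at the plate median or of vehicle wells; lower values mean less growth of the strain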; conditions: S. cerevisiae deletion strains, growth OD, locus YNL197C, strain WHI3
Among all 5,500 compounds or so, about 2,000 (36%) were called active. Another 18% or so got no clear call; they are omitted. Cut-off read from the data, not from the text of the source: active = normalized growth mostly below about 0.91 (no sharp cut-off); inconclusive = no clear call, values can overlap the other calls; inactive = mostly above about 0.92. Some of the results follow.
Entry note: the call must match one of active, inactive

| COMPOUND | CLASS LABEL |
| --- | --- |
| Cc1cc(N)c2ccccc2[n+]1CCCCCCCCCCCCCC[n+]1c(C)cc(N)c2ccccc21 | active |
| CCN(CC)C(=O)N[C@@H]1C[C@@H]2c3cccc4[nH]cc(c34)C[C@H]2N(C)C1 | inactive |
| NCCCCN | inactive |
| C/C=C/CC(C)C(O)C1C(=O)NC(CC)C(=O)N(C)CC(=O)N(C)C(CC(C)C)C(=O)NC(C(C)C)C(=O)N(C)C(CC(C)C)C(=O)NC(C)C(=O)NC(C)C(=O)N(C)C(CC(C)C)C(=O)N(C)C(CC(C)C)C(=O)N(C)C(C(C)C)C(=O)N1C (centres undefined) | inactive |
| Cc1nc(N=Nc2cc(S(=O)(=O)O)c3cc([N+](=O)[O-])cc(S(=O)(=O)O)c3c2)c(COP(=O)(O)O)c(C=O)c1O | inactive |
| CC(C)NCC(O)COc1ccc(CCOCC2CC2)cc1 (centres undefined) | inactive |
| NC(N)=NC(N)=Nc1cccc(Cl)c1 | inactive |
| N#C/C(=C\c1c[nH]c2ccccc12)C(=O)c1ccc(O)c(O)c1 | inactive |

Pending compound:
Prompt: Assay result, entry Cc1ccc(OCC(O)C(C)NC(C)C)c2c1CCC2 (centres undefined) — outcome?
Response: inactive

====

Kindly supply the reported normalized growth values for the records listed here.
assay: chemical genetic growth profiling, strain panel (AID 1159580); settings: S. cerevisiae deletion strains, growth OD, locus YNL307C, strain MCK1, active compounds read low
In all, about 5,500 compounds went through this assay and about 2,000 (36%) were called active. About 18% were inconclusive and are not listed. The list shows a part of the results.
Answers are plain numbers.

Worked examples, 4 compounds total:
| COMPOUND | OBSERVATION TYPE | ENDPOINT VALUE |
| --- | --- | --- |
| CO[C@H]1[C@H](O)[C@@H](O[C@H]2CC[C@]3(C=O)C4CC[C@]5(C)[C@@H](C6=CC(=O)OC6)CC[C@]5(O)C4CC[C@@H]3C2)O[C@@H](C)[C@@H]1O (stereo not given in full) | normalized growth | 0.993 |
| C[C@]12CC[C@H](O)C[C@H]1CCC1C2CC[C@]2(C)[C@@H](C3=CC(=O)OC3)[C@@H](O)C[C@]12O (stereo not given in full) | normalized growth | 0.98 |
| C[C@H]1O[C@@H](O[C@H]2[C@@H](O)C[C@H](O[C@H]3[C@@H](O)C[C@H](O[C@H]4CC[C@]5(C)C6C[C@@H](O)[C@]7(C)[C@@H](C8=CC(=O)OC8)CC[C@]7(O)C6CC[C@@H]5C4)O[C@@H]3C)O[C@@H]2C)C[C@H](O)[C@@H]1O (stereo not given in full) | normalized growth | 0.988 |
| CC12CCC3C(CCC4(O)CC(O)CCC34/C=N/NC(N)=O)C1(O)CCC2C1=CC(=O)OC1 (stereo not given) | normalized growth | 0.986 |

Continue with the next compound.
Prompt: What normalized growth value was documented for this compound, C[C@H]1O[C@@H](O[C@H]2[C@@H](O)C[C@H](O[C@H]3[C@@H](O)C[C@H](O[C@H]4CC[C@]5(C)C6CC[C@]7(C)[C@@H](C8=CC(=O)OC8)CC[C@]7(O)C6CC[C@@H]5C4)O[C@@H]3C)O[C@@H]2C)C[C@H](O)[C@@H]1O (stereo not given in full) ?
Response: 0.978

====

assay: chemical genetic growth profiling, strain panel (AID 1159580);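 note: tested at 20 µM; growth read once vehicle control cultures reached saturation at 30 °C; 1 = growth at the plate median or of vehicle wells; lower values mean less growth of the strain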; conditions: S. cerevisiae deletion strains, growth OD, locus YDR069C, strain doa4
In all, about 5,500 compounds went through this assay and about 2,000 (36%) were called active. About 18% were inconclusive and are not listed. Rule as the data show it: active = normalized growth mostly below about 0.91 (no sharp cut-off); inconclusive = no clear call, values can overlap the other calls; inactive = mostly above about 0.92. The list shows a part of the results.
Entry note: the call must match one of active, inactive

Completed entries (count: 5):
| MOLECULE | CLASS LABEL |
| --- | --- |
| Cc1c(C(N)=O)cc([N+](=O)[O-])cc1[N+](=O)[O-] | inactive |
| CC12CCC(=O)C=C1CCc1ccccc12 (stereo not drawn) | inactive |
| O=C(/C=C(\O)c1ccccc1)c1ccccc1O | active |
| NC[C@@H]1O[C@H](O[C@@H]2[C@@H](CO)OC(O[C@@H]3[C@@H](O)[C@H](N)C[C@H](N)[C@H]3O[C@H]3O[C@H](CO)[C@@H](O)[C@H](O)[C@H]3N)[C@@H]2O)[C@H](N)[C@@H](O)[C@@H]1O (stereo partly drawn) | inactive |
| CC1(C)S[C@@H]2[C@H](NC(=O)[C@@H](N)c3ccc(O)cc3)C(=O)N2[C@H]1C(=O)O | inactive |

Prompt: Assay result, entry CC(C)(C)NCC(O)COc1cccc2c1CCCC2=O (stereo not drawn) — outcome?
Response: inactive

Prompt: How about "Cc1ccc(-c2nc3ccc(C)cn3c2CC(=O)N(C)C)cc1" ?
Response: inactive

Prompt: How about CC(=O)OCC(=O)[C@@]1(O)CCC2C3C[C@H](C)C4=CC(=O)C=CC4(C)C3[C@@H](O)CC21C (stereo partly drawn) ?
Response: inactive

Prompt: How about NS(=O)(=O)c1cc2c(cc1C(F)(F)F)NC(Cc1ccccc1)NS2(=O)=O (stereo not drawn) ?
Response: inactive

Prompt: How about "O=C(O)c1ccccc1O" ?
Response: inactive

Prompt: How about "CC1(C)[C@@H]2CC[C@@]1(C)C(=O)C2" ?
Response: inactive

Prompt: How about Oc1ccc2c3c1OC1[C@@H](O)CC[C@@]4(O)[C@@H](C2)N(CC2CCC2)CC[C@]314 (stereo partly drawn) ?
Response: inactive

Prompt: How about CC(=O)N1CCN(c2ccc(OCC3CO[C@](Cn4ccnc4)(c4ccc(Cl)cc4Cl)O3)cc2)CC1 (stereo partly drawn) ?
Response: active

Prompt: How about COC1CC(O[C@H]2CC[C@]3(C=O)C4CC[C@]5(C)C(C6=CC(=O)OC6)CC[C@]5(O)C4CC[C@]3(O)C2)OC(C)C1O (stereo partly drawn) ?
Response: inactive

====

Kindly supply the reported normalized growth values for the records listed here.
experiment: chemical genetic growth profiling, strain panel (AID 1159580);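 note: tested at 20 µM; growth read once vehicle control cultures reached saturation at 30 °C; 1 = growth at the plate median or of vehicle wells; lower values mean less growth of the strain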; conditions: S. cerevisiae deletion strains, growth OD, locus YJL164C, strain tpk1, active compounds read low
The campaign covered roughly 5,500 compounds. About 2,000 (36%) were called active. Another 18% or so got no clear call; they are omitted. Some of the results follow.
Numbers only.

| COMPOUND | OBSERVATION TYPE | ENDPOINT VALUE |
| --- | --- | --- |
| COc1ccc(-c2cc(=O)c3c(O)cc(O)cc3o2)cc1 | normalized growth | 0.931 |
| COc1ccc(-c2cc(=O)c3c(OC)c(OC)c(OC)c(OC)c3o2)cc1OC | normalized growth | 1 |
| Nc1nc(/C(=C/CC(=O)O)C(=O)N[C@@H]2C(=O)N3C(C(=O)O)=CCS[C@H]23)cs1 | normalized growth | 0.988 |
| COc1ccc(-c2cc(=O)c3c(O)c(OC)c(OC)c(OC)c3o2)cc1OC | normalized growth | 0.995 |

For each listed entry, give its normalized growth.
1. NC[C@H]1O[C@H](OC2[C@@H](N)C[C@@H](N)[C@H](O[C@H]3O[C@H](CO)[C@@H](O)[C@H](N)[C@H]3O)[C@H]2O)[C@H](O)[C@@H](O)[C@@H]1O (stereo partly drawn)
2. NC[C@H]1O[C@H](O[C@H]2[C@H](O)[C@@H](O[C@H]3O[C@H](CO)[C@@H](O)[C@H](N)[C@H]3O)[C@H](N)C[C@@H]2N)[C@H](N)[C@@H](O)[C@@H]1O
3. NS(=O)(=O)c1cc2c(cc1C(F)(F)F)NC(Cc1ccccc1)NS2(=O)=O (stereo not drawn)
4. CC(C)=CC1C(CO)C1(C)C (stereo not drawn)

Response:
[0.991, 1, 0.984, 1.02]

====

assay: chemical genetic growth profiling, strain panel (AID 1159580);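 note: tested at 20 µM; growth read once vehicle control cultures reached saturation at 30 °C; 1 = growth at the plate median or of vehicle wells; lower values mean less growth of the strain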; conditions: S. cerevisiae deletion strains, growth OD, locus YDL074C, strain BRE1, active compounds read low
Screen size: about 5,500 compounds; about 2,000 (36%) were called active. About 18% were inconclusive and are not listed. The list shows a part of the results.
OBSERVATION TYPE: normalized growth

Worked examples, 3 compounds total:
| COMPOUND | normalized growth |
| --- | --- |
| COC1C(O)C(O[C@H]2CC[C@]3(C=O)C4C(CC[C@]3(O)C2)[C@@]2(O)CC[C@H](C3=CC(=O)OC3)[C@@]2(C)C[C@H]4OC(C)=O)OC(C)C1OC(C)=O (stereo partly drawn) | 1.04 (inactive) |
| COC(=O)CC1C(C)(C)C(OC(C)=O)[C@@H]2[C@@H](OC(C)=O)[C@]34O[C@@]2(O)[C@]1(C)C3CC[C@]1(C)C4=CC(=O)O[C@H]1c1ccoc1 (stereo partly drawn) | 1.03 (inactive) |
| C/C=C/CC(C)C(O)C1C(=O)NC(CC)C(=O)N(C)CC(=O)N(C)C(CC(C)C)C(=O)NC(C(C)C)C(=O)N(C)C(CC(C)C)C(=O)NC(C)C(=O)NC(C)C(=O)N(C)C(CC(C)C)C(=O)N(C)C(CC(C)C)C(=O)N(C)C(C(C)C)C(=O)N1C (stereo not drawn) | 0.937 (inactive) |

For each listed entry, give its normalized growth.
1. CC(=O)OCC(=O)[C@@]1(O)CCC2C3C[C@H](C)C4=CC(=O)C=CC4(C)C3[C@@H](O)CC21C (stereo partly drawn)
2. COC1=CC(=O)C=C(OC)C1=O
3. C[C@H]1O[C@@H](O[C@H]2[C@@H](O)C[C@H](O[C@H]3[C@@H](O)C[C@H](O[C@H]4CC[C@]5(C)C6CC[C@]7(C)[C@@H](C8=CC(=O)OC8)CC[C@]7(O)C6CC[C@@H]5C4)O[C@@H]3C)O[C@@H]2C)C[C@H](O)[C@@H]1O (stereo partly drawn)
4. NC(=O)c1cc([N+](=O)[O-])cc([N+](=O)[O-])c1
5. C[C@@H]1CCC2[C@](C)(CO)[C@@H](O)CC[C@]2(C)[C@@]12CC[C@@](CO)(CCO)O2 (stereo partly drawn)
6. CCOC(=O)C1=C(O)C(=O)N(Cc2ccccc2)C1
7. CO[C@H]1[C@H](O)[C@@H](O[C@H]2CC[C@]3(C=O)C4CC[C@]5(C)[C@@H](C6=CC(=O)OC6)CC[C@]5(O)C4CC[C@@H]3C2)O[C@@H](C)[C@@H]1O (stereo partly drawn)
8. NC(=O)c1ccc([N+](=O)[O-])cc1Cl

Response:
1. 0.994 (inactive)
2. 1.05 (inactive)
3. 0.982 (inactive)
4. 0.986 (inactive)
5. 1 (inactive)
6. 1 (inactive)
7. 1.01 (inactive)
8. 0.956 (inactive)

For each listed entry, give its normalized growth.
1. C[C@H]1O[C@@H](O[C@H]2[C@@H](O)C[C@H](O[C@H]3[C@@H](O)C[C@H](O[C@H]4CC[C@]5(C)C6C[C@@H](O)[C@]7(C)[C@@H](C8=CC(=O)OC8)CC[C@]7(O)C6CC[C@@H]5C4)O[C@@H]3C)O[C@@H]2C)C[C@H](O)[C@@H]1O (stereo partly drawn)
2. C[C@@H]1O[C@@H](O[C@H]2CC[C@]3(C=O)C4CC[C@]5(C)[C@@H](C6=CC(=O)OC6)CC[C@]5(O)C4CC[C@]3(O)C2)[C@H](O)[C@H](O)[C@H]1O (stereo partly drawn)

Response:
0.982 (inactive)
1.05 (inactive)
